Cited source: patent US20210069342A1

Measurement target: T1, recombinant human ROR1-His (Sino Biological, 13968-H08H) (human, UniProt Q01973 30-406)
T1 construct: extracellular domain; Bought protein; also called ROR1-HIS protein; not shown: His tag
T1 sequence (Q01973 30-406): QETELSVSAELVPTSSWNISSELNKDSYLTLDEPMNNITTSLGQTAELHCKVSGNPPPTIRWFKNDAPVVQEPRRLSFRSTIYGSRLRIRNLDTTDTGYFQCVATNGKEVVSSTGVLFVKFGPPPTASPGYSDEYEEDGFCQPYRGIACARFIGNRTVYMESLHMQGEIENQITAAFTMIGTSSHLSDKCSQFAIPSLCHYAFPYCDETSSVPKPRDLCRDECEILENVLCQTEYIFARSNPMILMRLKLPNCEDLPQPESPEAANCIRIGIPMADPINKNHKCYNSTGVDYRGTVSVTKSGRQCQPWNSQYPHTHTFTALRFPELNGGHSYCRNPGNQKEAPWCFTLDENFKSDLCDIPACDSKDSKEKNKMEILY
Test description: BLI (Octet), ROR1-His on Anti-Penta-His or AR2G biosensor, IgG 30 to 0.021 nM, 1:1 fit
Assay readout: Kd (nM)

>  <Binder>
anti-ROR1 IgG antibody A2F3 (antibody, V domains shown, Full IgG form (human IgG1 constant region, lambda light chain), expressed in CHO-S cells) VH: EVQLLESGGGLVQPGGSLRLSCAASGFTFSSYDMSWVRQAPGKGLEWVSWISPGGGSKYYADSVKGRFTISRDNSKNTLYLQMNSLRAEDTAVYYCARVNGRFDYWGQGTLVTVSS VL: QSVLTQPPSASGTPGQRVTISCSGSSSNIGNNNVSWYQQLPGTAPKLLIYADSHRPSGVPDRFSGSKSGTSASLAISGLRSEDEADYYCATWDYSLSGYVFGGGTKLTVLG

>  <Readout value>
0.024

$$$$
